Data origin, for the record: the OPERA property sets (Mansouri et al. 2018)

Outcome measure: melting point (°C)
Numbers only; they are read as °C.

Q: Give the reported melting point for this compound. `CCCCCCCCCCCCCCCCCC(=O)Oc1ccccc1`
A: 52

Q: Give the reported melting point for this compound. CCC(C(=O)O)C1(O)CCC(c2ccccc2)CC1 (stereo not drawn)
A: 157

Q: Give the reported melting point for this compound. `COc1ccc([N+](=O)[O-])c(N)c1`
A: 131

Q: Give the reported melting point for this compound. `CN(C)CCN1C(=O)c2ccccc2Nc2cc(Cl)ccc21`
A: 166

Q: Give the reported melting point for this compound. `O=CC=CC=Cc1ccccc1`
A: 42.5

Q: Give the reported melting point for this compound. CC(C(=O)O)c1cccc(C(=O)c2ccccc2)c1 (stereo not drawn)
A: 94

Q: Give the reported melting point for this compound. `C1CCOC1`
A: -108

Q: Give the reported melting point for this compound. `O=C1CN(/N=C/c2ccc([N+](=O)[O-])o2)C(=O)N1CN1CCOCC1`
A: 206

Q: Give the reported melting point for this compound. `S=C=Nc1ccc(N=C=S)cc1`
A: 132

Q: Give the reported melting point for this compound. `O=[PH](O)c1ccccc1`
A: 84

Q: Give the reported melting point for this compound. `Nc1cccc2c1Cc1ccccc1-2`
A: 126

Q: Give the reported melting point for this compound. `CCCCCCCCCCCCCCCC(=O)OCCCC`
A: 16.9

Q: Give the reported melting point for this compound. `c1ccc(-c2noc(-c3ccccc3)n2)cc1`
A: 109

Q: Give the reported melting point for this compound. `Brc1ccsc1Br`
A: -17.5

Q: Give the reported melting point for this compound. `CN(C)c1ccc(N=C2C=CC(=O)C=C2)cc1`
A: 134

Q: Give the reported melting point for this compound. `C[C@]12C=C(C=O)C(=O)C=C1CC[C@@H]1[C@@H]2[C@H](O)C[C@@]2(C)[C@H]1CC[C@]2(C)O`
A: 210

Q: Give the reported melting point for this compound. `Nc1ccc2cc(S(=O)(=O)O)cc(S(=O)(=O)O)c2c1`
A: 274

Q: Give the reported melting point for this compound. `COC(=O)Cn1ccnc1[N+](=O)[O-]`
A: 96

Q: Give the reported melting point for this compound. `O=C(O)CP(=O)(O)O`
A: 144

Q: Give the reported melting point for this compound. O=C1CCC(c2ccccc2)O1 (stereo not drawn)
A: 36.5

Q: Give the reported melting point for this compound. `CC[C@@H](C(=O)O)c1ccccc1`
A: 47.5

Q: Give the reported melting point for this compound. `O=C(c1ccccc1)c1ccc(Cl)cc1`
A: 77.5

Q: Give the reported melting point for this compound. `c1cc2c(cn1)CCCC2`
A: 146

Q: Give the reported melting point for this compound. `CC(=O)OCC(=O)[C@@]1(O)CC[C@H]2[C@@H]3C[C@H](C)C4=CC(=O)C=C[C@]4(C)[C@H]3[C@@H](O)C[C@@]21C`
A: 206

Q: Give the reported melting point for this compound. `CCOC(=O)c1ccc(OC)c(OC)c1`
A: 43.5

Q: Give the reported melting point for this compound. `CC/C=C/C(C)C`
A: -142

Q: Give the reported melting point for this compound. CCCSP(=S)(OCC)Oc1ccc(SC)cc1 (stereo not drawn)
A: -15

Q: Give the reported melting point for this compound. `O=C(C(Cl)(Cl)Cl)C(Cl)(Cl)Cl`
A: -2
